# credit: paper PMC4788153

Assay: Chiral plasma pharmacokinetics of MDMA and its phase I and II metabolites after controlled MDMA administration
Format: in vivo, human
Details: placebo+MDMA (125 mg), CYP2D6 EM, n=13, plasma
Counter-ions that a name gives are not always drawn.
attribute.measured: AUCtotal R

compound="CN[C@H](C)Cc1ccc(OS(=O)(=O)O)c(O)c1 [R-DHMA 4-sulfate]" obs_value="2.4 (1.7) μmol/l*h-1"
compound="CNC(C)Cc1ccc(OC2OC(C(=O)O)C(O)C(O)C2O)c(OC)c1 (centres unmarked) [R-HMMA glucuronide]" obs_value="5.5 (4.3) μmol/l*h-1"
compound="CN[C@H](C)Cc1ccc(O)c(OS(=O)(=O)O)c1 [R-DHMA 3-sulfate]" obs_value="4.7 (2.5) μmol/l*h-1"
compound="CN[C@H](C)Cc1ccc(OS(=O)(=O)O)c(OC)c1 [R-HMMA sulfate]" obs_value="9.6 (2.7) μmol/l*h-1"
compound="CN[C@H](C)Cc1ccc2c(c1)OCO2 [R-MDMA, 3,4-methylenedioxymethamphetamine]" obs_value="10.4 (3.6) μmol/l*h-1"

* * *

Assay: Chiral plasma pharmacokinetics of MDMA and its phase I and II metabolites after controlled MDMA administration
Format: in vivo, human
Settings: human, plasma, im, placebo+MDMA (125 mg), CYP2D6 IM, n=3, plasma; read-out: AUC0-24h S
Description: Blood plasma samples were analyzed non-stereoselectively as reported previously and reanalyzed for the present report using liquid chromatography-mass spectrometry/mass spectrometry after chiral derivatization with Marfey’s reagent as described previously. The method was fully validated, including selectivity, recovery, matrix effects, bias and imprecision, stability, and limit of quantification.
Counter-ions that a name gives are not always drawn.
Hi, to clarify the labels: T covers AUC(0-t) from 1000 nM·h upward, F covers anything below 1000 nM·h.

compound="CC(N)Cc1ccc2c(c1)OCO2 (stereo not drawn)" class_label=F
compound="CN[C@@H](C)Cc1ccc(O)c(OS(=O)(=O)O)c1 [S-DHMA 3-sulfate]" class_label=T
compound=CN[C@@H](C)Cc1ccc2c(c1)OCO2 class_label=T
compound="CN[C@@H](C)Cc1ccc(OS(=O)(=O)O)c(OC)c1 [S-HMMA sulfate]" class_label=T
compound="CN[C@@H](C)Cc1ccc(OS(=O)(=O)O)c(O)c1 [S-DHMA 4-sulfate]" class_label=F
compound="CNC(C)Cc1ccc(OC2OC(C(=O)O)C(O)C(O)C2O)c(OC)c1 (stereo not drawn) [S-HMMA glucuronide]" class_label=T

* * *

Test: Chiral plasma pharmacokinetics of MDMA and its phase I and II metabolites after controlled MDMA administration
Assay type: in vivo, human
Conditions: both sexes, human, plasma, oral, 125 mg, placebo+MDMA (125 mg), CYP2D6 EM, n=13, plasma; read-out: tmax R
Where a name gives a salt, the structure may show the parent alone.
Binarize Tmax at 3 h; below is yes (1), at or above is no (0).

molecule="CC(N)Cc1ccc2c(c1)OCO2 (stereo not drawn) [R-MDA, 3,4-methylenedioxyamphetamine]" class_label="no (0)"
molecule="CN[C@H](C)Cc1ccc(OS(=O)(=O)O)c(OC)c1 [R-HMMA sulfate]" class_label="yes (1)"
molecule="CNC(C)Cc1ccc(OC2OC(C(=O)O)C(O)C(O)C2O)c(OC)c1 (stereo not drawn) [R-HMMA glucuronide]" class_label="no (0)"
molecule="CN[C@H](C)Cc1ccc2c(c1)OCO2 [R-MDMA, 3,4-methylenedioxymethamphetamine]" class_label="yes (1)"
molecule="CN[C@H](C)Cc1ccc(OS(=O)(=O)O)c(O)c1 [R-DHMA 4-sulfate]" class_label="yes (1)"
molecule="CN[C@H](C)Cc1ccc(O)c(OS(=O)(=O)O)c1 [R-DHMA 3-sulfate]" class_label="yes (1)"
